System: human IL-8
Test: Inhibition of IL-8 production by stimulated human peripheral blood leukocytes in vitro (ELISA)
Type: cell-based
Details: Homo sapiens, Leukocyte, PBL, LPS stimulation, compound 50 μM; read-out: Percentage of inhibition of IL-8 production
inhibition at 50 µM values by entry
Could you give me the number in %? Just the number is fine.

The cases that follow already have their inhibition at 50 µM on record.
molecule | system.under.test | inhibition at 50 µM (%)
CC[C@H]1OC(=O)[C@H](C)[C@@H](O[C@H]2C[C@@](C)(OC)[C@@H](O)[C@H](C)O2)[C@H](C)[C@@H](O[C@@H]2O[C@H](C)C[C@H](N(C)C)[C@H]2O)[C@](C)(OC)C[C@@H](C)C(=O)[C@H](C)[C@@H](O)[C@]1(C)O [clarithromycin, reference compound] | human IL-8 | 0
CC[C@H]1OC(=O)[C@H](C)[C@@H](OC(=O)CCN(CC)CC)[C@H](C)[C@@H](O[C@@H]2O[C@H](C)C[C@H](NC)[C@@H]2O)[C@](C)(OC)C[C@@H](C)C(=O)N[C@H](C)[C@@H](O)[C@]1(C)O | human IL-8 | 77
CC[C@H]1OC(=O)[C@H](C)[C@@H](OC(=O)CCN(CC)CC)[C@H](C)[C@@H](O[C@@H]2O[C@H](C)C[C@H](N(C)C)C2O)[C@](C)(O)C[C@@H](C)CN(C)[C@H](C)[C@@H](O)[C@]1(C)O (stereo in doubt) | human IL-8 | 51

State recorded inhibition at 50 µM with human IL-8, entry CC[C@H]1OC(=O)[C@H](C)[C@@H](O[C@H]2C[C@@](C)(OC)[C@@H](O)[C@H](C)O2)[C@H](C)[C@@H](O[C@@H]2O[C@H](C)C[C@H](N(C)C)[C@H]2O)[C@](C)(O)C[C@@H](C)CN(C)[C@H](C)[C@@H](O)[C@]1(C)O [azithromycin, reference compound] , no comment.
0

====

Test system: human TNF-α
Assay: Inhibition of TNF-α production by stimulated human peripheral blood leukocytes in vitro (ELISA)
Assay type: cell-based
Conditions: Homo sapiens, Leukocyte, PBL, LPS stimulation, compound 50 μM; read-out: Percentage of inhibition of TNF-α production
Description: Substances, used in in vitro experiments, were dissolved in dimethyl sulfoxide (DMSO) (Kemika, Croatia) at concentrations of 50 mM and 10 mM and were further diluted to the final concentrations of […] in 1 mL Dulbecco's modified Eagle medium (DMEM) supplemented with 1% heat inactivated fetal bovine serum (FBS), 1% glutamax, 50 U/ml penicillin, 50 μg/ml streptomycin and 2.5 μg/mL Fungizone (amphotericin B). […]
inhibition at 50 µM values by entry
Could you give me the number in %? Just the number is fine.

The cases that follow already have their inhibition at 50 µM on record.
compound | numeric.result
CC[C@H]1OC(=O)[C@H](C)[C@@H](OC(=O)CCN2CCN(CCN(C)C)CC2)[C@H](C)[C@@H](O[C@@H]2O[C@H](C)C[C@H](N(C)C)[C@H]2O)[C@](C)(OC)C[C@@H](C)C(=O)N[C@H](C)[C@@H](O)[C@]1(C)O | 7
CC[C@H]1OC(=O)[C@H](C)[C@@H](O[C@H]2C[C@@](C)(OC)[C@@H](O)[C@H](C)O2)[C@H](C)[C@@H](O[C@@H]2O[C@H](C)C[C@H](N(C)C)[C@H]2O)[C@](C)(O)C[C@@H](C)CN(C)[C@H](C)[C@@H](O)[C@]1(C)O [azithromycin, reference compound] | 20
C=CC(=O)O[C@H]1[C@H](C)[C@@H](O[C@@H]2O[C@H](C)C[C@H](N(C)C)[C@H]2O)[C@](C)(OC)C[C@@H](C)C(=O)[C@H](C)[C@@H](O)[C@](C)(O)[C@@H](CC)OC(=O)[C@@H]1C | 100

// next item, inhibition at 50 µM requested
Consider the compound CC[C@H]1OC(=O)[C@H](C)[C@@H](OC(=O)CCN2CCCN(CCCN3CCCC3)CC2)[C@H](C)[C@@H](O[C@@H]2O[C@H](C)C[C@H](N(C)C)[C@H]2O)[C@](C)(OC)C[C@@H](C)C(=O)N[C@H](C)[C@@H](O)[C@]1(C)O . State its measured inhibition at 50 µM.
91
